# System: 565232-114-T-J1-PDC complex spheroid viability
# assay: Anticancer human tumor 565232-114-T-J1-PDC patient-derived bladder carcinoma cell line growth inhibition [CLK]
# test-conditions: second compound 0.1 µM; first compound 0.00949 µM; stronger effect = lower value
# Description: A high-throughput screen of multi-cell type tumor spheroids was designed to identify active combinations of […] and targeted small molecules. Complex spheroids include a stromal component modeled by human endothelial cells (HUVEC) and fibroblasts modeled by human mesenchymal stem cells (MSCs). […] Compounds. […] If the clinical Cmax for an agent had not been determined, the highest concentration tested was 10 microM. […]
Reported viability, T/C is given for each of the following molecules.

molecule	quantity-unit	viability, T/C
CC(C)CC(NC(=O)C(Cc1ccccc1)NC(=O)c1cnccn1)B(O)O (stereo unspecified) + CN1CCN(c2cc(C(=O)Nc3cc4cc(-c5cnn(C)c5)ccc4cn3)ccn2)CC1	%	2.13
NC(=O)C(=Cn1cnc(-c2cc(C(F)(F)F)cc(C(F)(F)F)c2)n1)c1cncnc1 + CNC(=O)c1ccc(Nc2nc(OC3CCCC3)c3c(-c4ccc5nc(C)oc5c4)c[nH]c3n2)c(OC)c1	%	44.5
CC(C)CC(NC(=O)C(Cc1ccccc1)NC(=O)c1cnccn1)B(O)O (stereo unspecified) + CNC(=O)c1ccc(Nc2nc(OC3CCCC3)c3c(-c4ccc5nc(C)oc5c4)c[nH]c3n2)c(OC)c1	%	1.02
C=CC(=O)Nc1cc(Nc2nccc(-c3cn(C)c4ccccc34)n2)c(OC)cc1N(C)CCN(C)C + CN1CCN(c2cc(C(=O)Nc3cc4cc(-c5cnn(C)c5)ccc4cn3)ccn2)CC1	%	110
C=CC(=O)Nc1cc(Nc2nccc(-c3cn(C)c4ccccc34)n2)c(OC)cc1N(C)CCN(C)C + CNC(=O)c1ccc(Nc2nc(OC3CCCC3)c3c(-c4ccc5nc(C)oc5c4)c[nH]c3n2)c(OC)c1	%	51.1
NC(=O)C(=Cn1cnc(-c2cc(C(F)(F)F)cc(C(F)(F)F)c2)n1)c1cncnc1 + CN1CCN(c2cc(C(=O)Nc3cc4cc(-c5cnn(C)c5)ccc4cn3)ccn2)CC1	%	112

###

# System: 565232-114-T-J1-PDC complex spheroid viability
# assay: Anticancer human tumor 565232-114-T-J1-PDC cell line growth inhibition [CLK];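 further: spheroids exposed to compounds for 7 days before readout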
# test-conditions: curve of first compound; second compound 3.16 µM
Reported IC50 is given for each of the following molecules.
readout-kind: IC50

molecule	tgt	readout-kind	value-observed
O=C(c1cc(Cc2n[nH]c(=O)c3ccccc23)ccc1F)N1CCN(C(=O)C2CC2)CC1 + CN1CCN(c2cc(C(=O)Nc3cc4cc(-c5cnn(C)c5)ccc4cn3)ccn2)CC1	565232-114-T-J1-PDC complex spheroid viability	IC50	< 31.6 nM
CCN1CCN(Cc2ccc(Nc3ncc(F)c(-c4cc(F)c5nc(C)n(C(C)C)c5c4)n3)nc2)CC1 + CN1CCN(c2cc(C(=O)Nc3cc4cc(-c5cnn(C)c5)ccc4cn3)ccn2)CC1	565232-114-T-J1-PDC complex spheroid viability	IC50	< 3.16 nM
Cn1ncnc1[C@H]1c2n[nH]c(=O)c3cc(F)cc(c23)N[C@@H]1c1ccc(F)cc1 + CNC(=O)c1ccc(Nc2nc(OC3CCCC3)c3c(-c4ccc5nc(C)oc5c4)c[nH]c3n2)c(OC)c1	565232-114-T-J1-PDC complex spheroid viability	IC50	< 0.316 nM
C#Cc1c(F)ccc2cc(O)cc(-c3ncc4c(N5CC6CCC(C5)N6)nc(OCC56CCCN5CC(F)C6)nc4c3F)c12 (stereo not given) + CN1CCN(c2cc(C(=O)Nc3cc4cc(-c5cnn(C)c5)ccc4cn3)ccn2)CC1	565232-114-T-J1-PDC complex spheroid viability	IC50	< 31.6 nM
COc1ccc([C@@H](O)c2cc(-c3ncnc4cc(N5CCOCC5)ccc34)c(F)cc2Cl)nn1 + CN1CCN(c2cc(C(=O)Nc3cc4cc(-c5cnn(C)c5)ccc4cn3)ccn2)CC1	565232-114-T-J1-PDC complex spheroid viability	IC50	< 31.6 nM
